All values here come from ChEMBL document CHEMBL3045626.

# Activity per record follows
target: Lycopene beta-cyclase (Pantoea ananas) (UniProt P21687); assay: Inhibition of Pantoea ananatis lycopene cyclase assessed as residual enzyme activity at 0.5 mM
Sequence (P21687 whole entry): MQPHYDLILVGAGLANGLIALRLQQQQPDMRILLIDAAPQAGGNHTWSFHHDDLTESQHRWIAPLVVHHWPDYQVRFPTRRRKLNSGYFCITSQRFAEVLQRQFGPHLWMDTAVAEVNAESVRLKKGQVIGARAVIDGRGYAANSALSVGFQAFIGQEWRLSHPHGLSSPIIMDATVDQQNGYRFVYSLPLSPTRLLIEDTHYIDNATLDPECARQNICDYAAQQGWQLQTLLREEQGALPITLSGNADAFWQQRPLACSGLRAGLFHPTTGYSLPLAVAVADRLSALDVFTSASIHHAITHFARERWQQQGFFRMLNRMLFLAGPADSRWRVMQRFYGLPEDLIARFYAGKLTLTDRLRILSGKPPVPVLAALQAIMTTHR
Supply the numeric figure in %, leaving out any unit text.

# count of solved cases: 3
[[record]]
smi = "O=CC(=O)c1ccccc1"
measure_unit = "%"
experimental_result = 92

[[record]]
smi = "NC(=O)CI"
measure_unit = "%"
experimental_result = 87

[[record]]
smi = "CCN1C(=O)C=CC1=O"
measure_unit = "%"
experimental_result = 83


Input line: Supply measured Activity of `CC(=O)C(C)=O` in your reply.
Output line: 90
